- Test system: OVCAR-8 complex spheroid, growth inhibition
- Assay explanation: Anticancer human tumor OVCAR-8 cell line growth inhibition [Asc];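 also: spheroids exposed to agents for 7 days before readout; percent viability relative to DMSO vehicle wells taken as 100%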
- Condition description: second compound 0.01 µM; first compound 0.00316 µM; stronger effect = lower value
Property: viability, T/C (%)
# unit: % | format: bare number

Inquiry: Given the compound COc1c(OCCCN2CCOCC2)ccc2c3n(c(=NC(=O)c4cnc(N)nc4)nc12)CCN3 + CNC(C)C(=O)NC1CN(S(=O)(=O)c2cccc(S(=O)(=O)N3CCC4CCC(C(=O)NC(c5ccccc5)c5ccccc5)N4C(=O)C(NC(=O)C(C)NC)C3)c2)CCC2CCC(C(=O)NC(c3ccccc3)c3ccccc3)N2C1=O , write its reported viability, T/C.
Reply text: 99.5

Inquiry: Given the compound O=C(c1ccc(F)c(F)c1Nc1ccc(I)cc1F)N1CC(O)([C@@H]2CCCCN2)C1 + CNC(C)C(=O)NC1CN(S(=O)(=O)c2cccc(S(=O)(=O)N3CCC4CCC(C(=O)NC(c5ccccc5)c5ccccc5)N4C(=O)C(NC(=O)C(C)NC)C3)c2)CCC2CCC(C(=O)NC(c3ccccc3)c3ccccc3)N2C1=O , write its reported viability, T/C.
Reply text: 97.3
